assay text: Cytotoxicity, MTT assay
Type: cell-based
measurement context: mouse, NIH/3T3 mouse embryonic fibroblast cells
pIC50: −log10 of the molar value.
readout kind: pIC50

{"columns": ["compound structure", "number"],
 "data": [
  ["CN(C)CCN1CCN(Cc2ccc(C(=O)Nc3nc4ccccc4s3)cc2)CC1", 4.14]
]}

====

system name: human butyrylcholinesterase (Homo sapiens, UniProt P06276)
Sequence (P06276 29-602): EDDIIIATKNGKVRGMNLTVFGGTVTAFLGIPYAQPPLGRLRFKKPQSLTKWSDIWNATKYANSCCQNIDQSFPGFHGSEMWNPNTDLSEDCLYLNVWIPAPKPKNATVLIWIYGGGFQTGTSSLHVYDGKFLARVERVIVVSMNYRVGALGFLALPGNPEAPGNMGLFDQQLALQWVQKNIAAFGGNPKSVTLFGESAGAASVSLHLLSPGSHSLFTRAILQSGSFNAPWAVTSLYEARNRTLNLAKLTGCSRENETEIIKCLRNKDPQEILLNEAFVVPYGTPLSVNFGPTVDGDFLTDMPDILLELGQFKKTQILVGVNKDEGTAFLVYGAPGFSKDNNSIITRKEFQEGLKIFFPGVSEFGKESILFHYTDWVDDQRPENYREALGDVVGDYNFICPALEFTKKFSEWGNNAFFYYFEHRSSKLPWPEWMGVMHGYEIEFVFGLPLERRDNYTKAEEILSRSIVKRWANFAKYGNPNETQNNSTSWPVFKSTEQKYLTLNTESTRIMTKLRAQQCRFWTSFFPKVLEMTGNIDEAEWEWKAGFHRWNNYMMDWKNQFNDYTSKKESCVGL
assay text: BChE inhibition, modified Ellman's spectrophotometric method
Assay type: biochemical
measurement context: read-out: BChE % inhibition
Quick reference for inhibition at 100 µM among some compounds

{"columns": ["compound structure", "inhibition at 100 µM / %"],
 "data": [
  ["CCN1CCN(Cc2ccc(C(=O)Nc3nc4cc(OC)ccc4s3)cc2)CC1", 25.2],
  ["CCN1CCN(Cc2ccc(C(=O)Nc3nc4ccccc4s3)cc2)CC1", 24.4],
  ["C#CCN1CCN(Cc2ccc(C(=O)Nc3nc4ccccc4s3)cc2)CC1", 28.4],
  ["CN(C)CCN1CCN(Cc2ccc(C(=O)Nc3nc4ccccc4s3)cc2)CC1", 32.8],
  ["COc1ccc2sc(NC(=O)c3ccc(CN4CCN(C(C)C)CC4)cc3)nc2c1", 24.3],
  ["C#CCN1CCN(Cc2ccc(C(=O)Nc3nc4cc(OC)ccc4s3)cc2)CC1", 26.4],
  ["CC(C)N1CCN(Cc2ccc(C(=O)Nc3nc4ccccc4s3)cc2)CC1", 26.8],
  ["COc1ccc2sc(NC(=O)c3ccc(CN4CCN(CCCN(C)C)CC4)cc3)nc2c1", 30.4],
  ["CN(C)CCCN1CCN(Cc2ccc(C(=O)Nc3nc4ccccc4s3)cc2)CC1", 30.9],
  ["COc1ccc2sc(NC(=O)c3ccc(CN4CCN(C)CC4)cc3)nc2c1", 27]
]}

All figures here come from paper PMC9389372.
